This collection of values is drawn from patent US20240041042A1.

Readings of Pre-emergence action against VIOTR in % for the listed compounds
# Test system: Viola tricolor (VIOTR)
# method: Pre-emergence herbicidal action against VIOTR
# Format: in vivo
# particulars: dosage 80 g/ha

compound	Pre-emergence action against VIOTR in %
COC(=O)[C@@H](C)Oc1nn(-c2nc(F)ccc2F)c(-c2ccc(F)nc2)c1Cl [Example I-332]	90%
COC(=O)[C@@H](C)Oc1nn(-c2ncccc2F)c(-c2ccc(F)nc2)c1C1CC1 [Example I-307]	100%
O=C(COc1nn(-c2ccccn2)c(-c2ccc(F)nc2)c1Cl)NS(=O)(=O)CC(F)(F)F [Example I-119]	80%
O=C(O)COc1nn(-c2ccccn2)c(-c2cncc(F)c2)c1Br [Example I-84]	90%
O=C(O)COc1nn(-c2ncccc2F)c(-c2ccc(F)nc2)c1C1CC1 [Example I-43]	100%
O=C(O)COc1nn(-c2ncccc2Cl)c(-c2ccc(F)nc2)c1Br [Example I-26]	100%
COC(=O)COc1nn(-c2ncccc2F)c(-c2ccc(F)nc2)c1C1CC1 [Example I-42]	100%
COC(=O)COc1nn(-c2ncccc2Cl)c(-c2ccc(F)nc2)c1Br [Example I-28]	100%
C[C@@H](Oc1nn(-c2ncccc2Cl)c(-c2ccc(F)nc2)c1Br)C(=O)O [Example I-25]	100%
COC(=O)COc1nn(-c2ncccc2C(F)(F)F)c(-c2cncc(F)c2)c1I [Example I-223]	90%
C[C@@H](Oc1nn(-c2nc(F)ccc2F)c(-c2cncc(F)c2)c1Cl)C(=O)O [Example I-159]	100%
C[C@@H](Oc1nn(-c2ccccn2)c(-c2cncc(F)c2)c1Cl)C(=O)O [Example I-218]	100%
COC(=O)[C@@H](C)Oc1nn(-c2ccccn2)c(-c2cncc(F)c2)c1Br [Example I-83]	100%
COCCOCCOC(=O)COc1nn(-c2ncccc2F)c(-c2ccc(F)nc2)c1Br [Example I-37]	100%
COC(=O)C(C)COC(=O)[C@@H](C)Oc1nn(-c2ccccn2)c(-c2cncc(F)c2)c1Cl (some centres unmarked) [Example I-198]	90%
CCOC(=O)COc1nn(-c2ncccc2C(F)(F)F)c(-c2cncc(F)c2)c1I [Example I-225]	90%
CC(Oc1nn(-c2ccccn2)c(-c2ccc(F)nc2)c1C(F)(F)F)C(=O)O (centres unmarked) [Example I-94]	100%
